viability reference
Test: reducers of endogenous Her2 protein level, primary screen, SKBR3 breast tumor cells, AlphaScreen, ATP viability (AID 461);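 note: percent of carrier control wells set as 100% viability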
Details: 18-24 h, measured here: SKBR3 viability, ATP luminescence, at 10 µM
Please report the result as a number followed by the unit.

Below are worked cases with known answers.
Form field: reported viability of CS(=O)(=O)c1ccc2nc(NC(=O)c3cccs3)sc2c1 99%

Form field: reported viability of O=C(c1cnsn1)N1CCN(c2ccccn2)CC1 122%

Form field: reported viability of COc1ccc(CN(C(=O)CNC(=O)c2ccco2)C(C(=O)NC2CCCC2)c2ccco2)cc1 (stereo unspecified) 91%

Form field: reported viability of O=C(CSc1nc2ccccc2s1)N1CCN(C(=O)c2ccco2)CC1 86.5%

Form field: reported viability of CSc1nnc2c3ccccc3n(CCc3ccccc3)c2n1 90%

Moving on to the next compound.
Form field: reported viability of CCCCn1cnc2c(cnn2-c2ccc(Cl)cc2)c1=O 94.5%

* * *

viability reference
Test: reversal of MRP1-mediated doxorubicin resistance, pilot screen, H69AR cells, doxorubicin co-treatment (AID 601)
Details: H69AR cells + 2 uM doxorubicin, CellTiter-Glo, 72 h; measured here: viability with 2 uM doxorubicin; at 10 µM; stronger effect = lower value
Give just the numeric value; % need not be written.

Below are worked cases with known answers.
Form field: reported viability of Cc1cccc(NC(=O)CCN2CCN(C/C=C/c3ccccc3)CC2)c1 96.1

Form field: reported viability of CCOC(=O)c1cc2sc(C)cc2n1C(C)C(=O)OCC (configuration not stated) 92.5

Form field: reported viability of Cc1nc2sc(C(c3ccccc3)N3CCN(c4ccccc4F)CC3)c(O)n2n1 (configuration not stated) 98.1

Form field: reported viability of O=C(COC(=O)c1ccccc1Oc1ccccc1)NC1CCS(=O)(=O)C1 (configuration not stated) 98.6

Form field: reported viability of CC(C)[C@H](NC(=O)OC(C)(C)C)c1nnc(SCc2cccc(F)c2)o1 97.5

Continuing:
Form field: reported viability of COc1ccc(C(=O)Nc2cccc(-c3nc4ncccc4o3)c2C)cc1OC 91.2

Form field: reported viability of CC(C)NC(=O)CSCc1ccccc1Cl 76.8

Form field: reported viability of CCc1[nH]nc2c1C(c1ccncc1)C(C#N)=C(N)O2 (configuration not stated) 99.8

Form field: reported viability of CC(C)(C)C(=O)N=C1SC2CS(=O)(=O)CC2N1c1ccc2c(c1)OCO2 (configuration not stated) 95.7

Form field: reported viability of COc1cc(S(=O)(=O)n2nnc3ccccc32)c(OC)cc1Cl 87.9

* * *

Test: HUVEC growth inhibition – cell-based, human, primary screen (AID 575);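 note: 100% = median of untreated cell wells with 0.1% DMSO on each plate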
Settings: HUVEC proliferation, CellTiter-Glo luminescence, 72 h; at 10 µM; stronger effect = lower value
In plain terms, low viability, meaning strictly below 90%, gives 1.0, and everything else gives 0.0.

Is 90% strictly greater than the compound's reported viability? compound: Cn1c2ccccc2c2c(C(=O)NCCCN3CCCC3=O)cn(C3CCCCC3)c(=O)c21 0.0

Is 90% strictly greater than the compound's reported viability? compound: CCCCN(C)Cc1c(C)[nH]c2c(Cl)cccc2c1=O 0.0

Is 90% strictly greater than the compound's reported viability? compound: O=C(CSc1nnnn1-c1ccc2c(c1)OCO2)NCc1cccs1 0.0

Is 90% strictly greater than the compound's reported viability? compound: O=S(=O)(CCOc1ccccc1)c1nc2ccccc2[nH]1 1.0

Is 90% strictly greater than the compound's reported viability? compound: Cn1cnc(S(=O)(=O)Nc2ccc(C(F)(F)F)cc2)c1 0.0

Is 90% strictly greater than the compound's reported viability? compound: Cc1ccccc1C1CC(c2ccccc2)Nc2ncnn21 (stereo unspecified) 0.0

Is 90% strictly greater than the compound's reported viability? compound: Cc1ccc(N2C(=O)c3ccccc3C2Nc2cccnc2)nc1 (stereo unspecified) 1.0

Is 90% strictly greater than the compound's reported viability? compound: COc1ccccc1NC(=O)c1ccc(NC(=O)CSc2nnnn2C)cc1 1.0

Below: the item to evaluate.
Is 90% strictly greater than the compound's reported viability? compound: CC1=NC(Nc2nc(C)c3ccccc3n2)=NC(C)(C)C1 1.0
